# Tested on: C57BL/6 mice given hANGPTL4-mFc
# Format: in vivo
# condition_set: antibody 5 mg/kg s.c.; 24 h later hANGPTL4-mFc 25 μg/mouse i.v.; bled 30 min after; mean±SEM
readout_label: HDL (mg/dL)

| molecule | readout_label | result |
| --- | --- | --- |
| H1H291P: anti-hANGPTL4 antibody, HCVR/LCVR SEQ ID NOs 138/140 (antibody, V domains shown) VH: EVQLVESGGGLVQPGGSLRLSCAASGFTFSTYDMHWVRQGLGKGLEWVSAIGSAGDTYYPGSVKGRFTISRDNAKSSLFLHMNSLRAGDTALYYCARGDSRNYFVGDYFDYWGQGTLVTVSS VL: DIQMTQSPSTLSASIGDRVTITCRASQSISSWLAWYQQKPGKAPKVLIYKASSLEAGVPSRFSGSGSGTEFTLTISSLQPDDFASYYCQQYSSYSRTFGQGTKVEIK | HDL | 38.24 |
| H1H284P: anti-hANGPTL4 antibody, hIgG1 isotype, HCVR/LCVR SEQ ID NOs 90/92 (antibody, V domains shown) VH: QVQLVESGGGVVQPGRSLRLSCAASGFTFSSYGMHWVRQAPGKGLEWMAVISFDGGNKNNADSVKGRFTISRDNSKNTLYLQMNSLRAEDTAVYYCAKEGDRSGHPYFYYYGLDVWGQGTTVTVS VL: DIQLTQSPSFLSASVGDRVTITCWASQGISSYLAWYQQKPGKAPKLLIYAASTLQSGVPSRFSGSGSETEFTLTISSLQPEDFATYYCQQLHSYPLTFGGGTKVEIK | HDL | 39.60 |
| H1H285P: anti-hANGPTL4 antibody, HCVR/LCVR SEQ ID NOs 114/116 (antibody, V domains shown) VH: EVQLVESGGGLVQPGGSLRLSCAASGFTFSRYDMHWVRQVTGKGLEWVSGIGTAGDTYYPGSVKGRFTISRENDKNSLYLQMNSLRVGDTAVYYCARGDSKNYYVGDYFDYWGQGTLVTVSS VL: DIQMTQSPSTLSASVGDRVTFTCRASHSIGNWLAWYQQKPGKAPKVLIYEASSLEDGVPSRFSGSGSGTEFTLTISSLQPDDFATYYCQQYDTYFRTFGQGTKVEIK | HDL | 42.20 |
| H1H292P: anti-hANGPTL4 antibody, HCVR/LCVR SEQ ID NOs 162/164 (antibody, V domains shown) VH: EVQLVESGGGLVQPGGSLRLSCVASGFTFSSYDMHWVRQLPGKGLEWVSAIGVAGDTYYPASVKGRFTISRENAKNSLYLQMNSLRAGDTAVYYCARGDSGNYYDGDYFDFWGQGTLVTVSS VL: DIQMTQSPSTLSASVGDRVTITCRASQSINRWLAWYQQKPGKAPKVLIYKASNLESGVPSRFSGSGSGTEFTLTISSLQPDDFATYYCQQYDSYFRTFGQGTKVEIK | HDL | 39.44 |
| H1H638P: anti-hANGPTL4 antibody, HCVR/LCVR SEQ ID NOs 258/260 (antibody, V domains shown) VH: EVQLVESGGGLVQPGGSLRLSCVASGFTFSSYDMHWVRQVAGKGLEWVAAIGTAGDTYYPVSVKGRFTISRENAKNSLSLHMNSLRAGDTAVYYCARGDSRNYYVGDYFDYWGQGTLVTVSS VL: DIQMTQSPSTLSASVGDRVTITCRASQSISRWLAWYQQKPGKAPKVLIYKASSLKSGVPSRFSGSGSGTEFTLTISSLQSDDFATYYCQQYNSYSRTFGQGTKVEIK | HDL | 39.54 |
